Property: Selectivity Fc/Fab; scope: individual substances
Molecular target: trastuzumab (Homo sapiens, UniProt P01857)
Sequence (P01857 1-330 isoform P01857-1): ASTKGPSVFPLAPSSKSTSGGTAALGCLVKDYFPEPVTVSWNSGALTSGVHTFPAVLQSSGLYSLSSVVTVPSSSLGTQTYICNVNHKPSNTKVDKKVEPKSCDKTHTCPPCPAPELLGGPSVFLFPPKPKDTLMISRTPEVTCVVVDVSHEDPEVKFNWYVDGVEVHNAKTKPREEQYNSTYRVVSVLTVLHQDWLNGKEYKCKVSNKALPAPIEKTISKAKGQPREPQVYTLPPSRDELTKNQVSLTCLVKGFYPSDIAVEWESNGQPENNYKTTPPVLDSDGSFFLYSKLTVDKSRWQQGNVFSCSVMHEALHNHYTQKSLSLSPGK
Test: Template-directed conjugation to trastuzumab, LC-FTMS analysis
Format: biochemical
Settings: payload transferred with Fc-III-L6Orn carbonate reactive conjugate
Lab note: record just the number, no unit beside it.

substance: DCAWH N GELVWCT NH2 (disulfide) [DM4]
Selectivity Fc/Fab: 6.80

Asked: Quick one: Selectivity Fc/Fab for DCAWH N GELVWCT NH2 (disulfide) [DM1] ?
Given back: 5.70

====

Property: Labeled mAb; scope: individual substances
Target: trastuzumab (Homo sapiens, UniProt P01857)
Assay: Template-directed conjugation to trastuzumab, LC-FTMS analysis
Assay type: biochemical
Settings: payload transferred with Fc-III-L6Orn carbonate reactive conjugate
Answer with the value and then the unit.

# annotated cases, reported Labeled mAb shown
substance: DCAWH N GELVWCT NH2 (disulfide) [DM4]
Labeled mAb: 68%
--
substance: DCAWH N GELVWCT NH2 (disulfide) [NODAGA]
Labeled mAb: 97%
--
substance: DCAWH N GELVWCT NH2 (disulfide) [DM1]
Labeled mAb: 73%

Asked: Quick one: Labeled mAb for DCAWH N GELVWCT NH2 (disulfide) [FITC] ?
Given back: 95%
